All figures here come from patent US20240325555A1.

Target: cynomolgus LIV-1 (cynomolgus, UniProt A0A2K5WH46 30-741)
Sequence (A0A2K5WH46 entry or part of it): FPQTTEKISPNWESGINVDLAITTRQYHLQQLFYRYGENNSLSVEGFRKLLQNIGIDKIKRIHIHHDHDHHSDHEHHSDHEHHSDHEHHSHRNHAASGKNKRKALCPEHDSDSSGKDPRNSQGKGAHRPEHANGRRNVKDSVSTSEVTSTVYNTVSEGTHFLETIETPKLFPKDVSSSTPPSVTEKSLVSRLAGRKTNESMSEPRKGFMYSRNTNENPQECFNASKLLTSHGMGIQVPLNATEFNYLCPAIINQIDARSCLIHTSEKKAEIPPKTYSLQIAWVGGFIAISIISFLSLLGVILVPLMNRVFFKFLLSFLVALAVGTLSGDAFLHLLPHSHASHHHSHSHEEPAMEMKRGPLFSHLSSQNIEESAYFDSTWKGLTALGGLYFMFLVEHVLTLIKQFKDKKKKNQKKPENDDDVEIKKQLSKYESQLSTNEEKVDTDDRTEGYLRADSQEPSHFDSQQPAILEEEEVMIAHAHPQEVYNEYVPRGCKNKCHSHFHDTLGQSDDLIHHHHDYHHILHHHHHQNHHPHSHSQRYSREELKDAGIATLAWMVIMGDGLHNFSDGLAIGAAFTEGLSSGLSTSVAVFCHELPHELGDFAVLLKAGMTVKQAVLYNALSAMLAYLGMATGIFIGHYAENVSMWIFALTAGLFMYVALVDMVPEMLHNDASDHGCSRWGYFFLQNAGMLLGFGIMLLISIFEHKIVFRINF
Assay: FACS, cyno LIV-1 cells
Reported Top (MFI) values follow for various binders

// Top (MFI) lookup, binder = 290F10G10.p1.Z18 (antibody, V domains shown) VH: EIQLVQSGAEVKKPGASVKVSCKASGYTFTSYWIHWVREAPGQGLEWIGTIYPGDADTRSTQKFKDKATVTADKSTSTVYMELSSLRSEDTAVYYCTRSLIHDDYDKYYFDYWGQGTTVTVSS VL: DIQMTQSPSSLSASVGDRVTITCKARQDINKYIAWYQHKPGKGPKLLIHYTSILQPGIPSRFSGSGSGRDYTFTISSLQPEDIATYYCLQYDYFFTFGGGTKVEIK , result: 7040 MFI

// Top (MFI) lookup, binder = 290F10G10.p1.Z8 (antibody, V domains shown) VH: EVQLVQSGAEVKKPGASVKVSCKASGYTFTSYWIHWVRQAPGQGLEWIGTIYPGDADTRSTQKFKDKATVTADKSTSTVYMELSSLRSEDTAVYYCARSLIHDDYDKYYFDYWGQGTTVTVSS VL: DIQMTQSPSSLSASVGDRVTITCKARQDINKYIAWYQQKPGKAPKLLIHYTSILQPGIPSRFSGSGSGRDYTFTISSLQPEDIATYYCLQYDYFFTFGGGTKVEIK , result: 7190 MFI

Moving on to another binder below.
// Top (MFI) lookup, binder = 290F10G10.p1.Z11 (antibody, V domains shown) VH: EVQLVQSGAEVKKPGASVKVSCKASGYTFTSYWIHWVRQAPGQGLEWMGTIYPGDADTRSTQKFKDRVTVTADKSTSTVYMELSSLRSEDTAVYYCTRSLIHDDYDKYYFDYWGQGTTVTVSS VL: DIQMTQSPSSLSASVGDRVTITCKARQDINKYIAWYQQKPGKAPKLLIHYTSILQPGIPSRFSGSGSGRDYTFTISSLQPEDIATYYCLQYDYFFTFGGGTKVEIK , result: 7410 MFI
